system: Staphylococcus aureus; experiment: Antimicrobial activity against methicillin-resistant Staphylococcus aureus N315 after 24 hrs by two-fold serial dilution method; assay type: functional; settings: N315, 24 h

# compound, MIC
records = [
    ("CCCCCCn1cc(CN(Cc2cn(CCCCCC)nn2)N2C(=O)c3cccc4c(Br)ccc(c34)C2=O)nn1", "> 512 µg/mL"),
    ("Cl.Cl.Cl.Cl.O=C1c2cccc3c(Br)ccc(c23)C(=O)N1N(Cc1cn(Cc2cccc(Cl)c2)nn1)Cc1cn(Cc2cccc(Cl)c2)nn1", "256 µg/mL"),
    ("O=C1c2cccc3c(Br)ccc(c23)C(=O)N1N(Cc1cn(Cc2ccccc2Cl)nn1)Cc1cn(Cc2ccccc2Cl)nn1", "512 µg/mL"),
    ("Cl.Cl.Cl.Cl.O=C1c2cccc3c(Br)ccc(c23)C(=O)N1N(Cc1cn(Cc2ccccc2Cl)nn1)Cc1cn(Cc2ccccc2Cl)nn1", "512 µg/mL"),
    ("Cl.Cl.O=C1c2cccc3c(Br)ccc(c23)C(=O)N1N(Cc1cn(Cc2ccccc2F)nn1)Cc1cn(Cc2ccccc2F)nn1", "> 512 µg/mL"),
    ("O=C1c2cccc3c(Br)ccc(c23)C(=O)N1N(Cc1cn(Cc2ccc(Cl)cc2Cl)nn1)Cc1cn(Cc2ccc(Cl)cc2Cl)nn1", "> 512 µg/mL"),
    ("O=C1c2cccc3c(Br)ccc(c23)C(=O)N1N(Cc1cn(Cc2ccccc2F)nn1)Cc1cn(Cc2ccccc2F)nn1", "> 512 µg/mL"),
]

---

system: Staphylococcus aureus; assay: Antimicrobial activity against Staphylococcus aureus ATCC 25923 after 24 hrs by two-fold serial dilution method; format: functional; details: ATCC 25923, 24 h
Below is a list of entries, each paired with its recorded MIC value.

# compound, limit_qualifier, MIC, µg/mL
rows = [
    ("Cl.Cl.Cl.Cl.Cl.Cl.O=C1c2cccc3c(Br)ccc(c23)C(=O)N1N(Cc1cn(Cc2ccc(Cl)cc2Cl)nn1)Cc1cn(Cc2ccc(Cl)cc2Cl)nn1", ">", 512),
    ("CCn1cc(C(=O)O)c(=O)c2cc(F)c(N3CCNCC3)cc21", "=", 4),
    ("CCCCCCn1cc(CN(Cc2cn(CCCCCC)nn2)N2C(=O)c3cccc4c(Br)ccc(c34)C2=O)nn1", ">", 512),
    ("CCCCCCn1cc(CN(Cc2cn(CCCCCC)nn2)N2C(=O)c3cccc4c(Br)ccc(c34)C2=O)nn1.Cl.Cl", ">", 512),
    ("O=C1c2cccc3c(Br)ccc(c23)C(=O)N1N(Cc1cn(Cc2cccc(Cl)c2)nn1)Cc1cn(Cc2cccc(Cl)c2)nn1", "=", 256),
    ("O=C1c2cccc3c(Br)ccc(c23)C(=O)N1N(Cc1cn(Cc2ccc(F)cc2F)nn1)Cc1cn(Cc2ccc(F)cc2F)nn1", ">", 512),
    ("Cl.Cl.Cl.Cl.O=C1c2cccc3c(Br)ccc(c23)C(=O)N1N(Cc1cn(Cc2ccc(Cl)cc2)nn1)Cc1cn(Cc2ccc(Cl)cc2)nn1", "=", 256),
]

---

Below is a list of entries, each paired with its recorded MIC value.
tested on: Saccharomyces cerevisiae; assay: Antimicrobial activity against Saccharomyces cerevisiae by two-fold serial dilution method; type: functional

# compound, MIC
records = [
    ("O=C1c2cccc3c(Br)ccc(c23)C(=O)N1N(Cc1cn(Cc2ccc(Cl)c(Cl)c2)nn1)Cc1cn(Cc2ccc(Cl)c(Cl)c2)nn1", "64 µg/mL"),
    ("O=C1c2cccc3c(Br)ccc(c23)C(=O)N1N(Cc1cn(Cc2ccc([N+](=O)[O-])cc2)nn1)Cc1cn(Cc2ccc([N+](=O)[O-])cc2)nn1", "> 512 µg/mL"),
    ("Cl.Cl.Cl.Cl.O=C1c2cccc3c(Br)ccc(c23)C(=O)N1N(Cc1cn(Cc2cccc(Cl)c2)nn1)Cc1cn(Cc2cccc(Cl)c2)nn1", "64 µg/mL"),
    ("O=C1c2cccc3c(Br)ccc(c23)C(=O)N1N(Cc1cn(Cc2ccccc2F)nn1)Cc1cn(Cc2ccccc2F)nn1", "> 512 µg/mL"),
    ("CCCCn1cc(CN(Cc2cn(CCCC)nn2)N2C(=O)c3cccc4c(Br)ccc(c34)C2=O)nn1", "> 512 µg/mL"),
    ("CCCCCCCCn1cc(CN(Cc2cn(CCCCCCCC)nn2)N2C(=O)c3cccc4c(Br)ccc(c34)C2=O)nn1", "> 512 µg/mL"),
    ("Cl.Cl.O=C1c2cccc3c(Br)ccc(c23)C(=O)N1N(Cc1cn(Cc2ccc(F)cc2F)nn1)Cc1cn(Cc2ccc(F)cc2F)nn1", "> 512 µg/mL"),
]

---

tested on: Candida albicans; assay: Antimicrobial activity against Candida albicans after 24 hrs by two-fold serial dilution method; format: functional
Below is a list of entries, each paired with its recorded MIC value.
property: MIC

# compound, experimental_result
data = [
    ("CCCCCCn1cc(CN(Cc2cn(CCCCCC)nn2)N2C(=O)c3cccc4c(Br)ccc(c34)C2=O)nn1.Cl.Cl", "> 512 µg/mL"),
    ("Cl.Cl.Cl.Cl.Cl.Cl.O=C1c2cccc3c(Br)ccc(c23)C(=O)N1N(Cc1cn(Cc2ccc(Cl)c(Cl)c2)nn1)Cc1cn(Cc2ccc(Cl)c(Cl)c2)nn1", "256 µg/mL"),
    ("O=C1c2cccc3c(Br)ccc(c23)C(=O)N1N(Cc1cn(Cc2cccc(Cl)c2)nn1)Cc1cn(Cc2cccc(Cl)c2)nn1", "64 µg/mL"),
    ("O=C1c2cccc3c(Br)ccc(c23)C(=O)N1N(Cc1cn(Cc2ccccc2Cl)nn1)Cc1cn(Cc2ccccc2Cl)nn1", "64 µg/mL"),
    ("Cl.Cl.Cl.Cl.O=C1c2cccc3c(Br)ccc(c23)C(=O)N1N(Cc1cn(Cc2cccc(Cl)c2)nn1)Cc1cn(Cc2cccc(Cl)c2)nn1", "16 µg/mL"),
    ("O=C1c2cccc3c(Br)ccc(c23)C(=O)N1N(Cc1cn(Cc2ccc(Cl)c(Cl)c2)nn1)Cc1cn(Cc2ccc(Cl)c(Cl)c2)nn1", "256 µg/mL"),
    ("Cl.Cl.O=C1c2cccc3c(Br)ccc(c23)C(=O)N1N(Cc1cn(Cc2ccccc2F)nn1)Cc1cn(Cc2ccccc2F)nn1", "> 512 µg/mL"),
]

---

test system: Saccharomyces cerevisiae; experiment: Antimicrobial activity against Saccharomyces cerevisiae by two-fold serial dilution method; type: functional
property: MIC

# compound, property, experimental_result
records = [
    ("O=C1c2cccc3c(Br)ccc(c23)C(=O)N1N(Cc1cn(Cc2cccc(F)c2)nn1)Cc1cn(Cc2cccc(F)c2)nn1", "MIC", "> 512 µg/mL"),
    ("O=C1c2cccc3c(Br)ccc(c23)C(=O)N1N(Cc1cn(Cc2ccccc2Cl)nn1)Cc1cn(Cc2ccccc2Cl)nn1", "MIC", "> 512 µg/mL"),
    ("O=C1c2cccc3c(Br)ccc(c23)C(=O)N1N(Cc1cn(Cc2ccc(Cl)cc2Cl)nn1)Cc1cn(Cc2ccc(Cl)cc2Cl)nn1", "MIC", "> 512 µg/mL"),
    ("O=C1c2cccc3c(Br)ccc(c23)C(=O)N1N(Cc1cn(Cc2cccc(Cl)c2)nn1)Cc1cn(Cc2cccc(Cl)c2)nn1", "MIC", "64 µg/mL"),
]

---

tested on: Candida albicans; assay: Antimicrobial activity against Candida albicans after 24 hrs by two-fold serial dilution method; type: functional

# compound, tested_on, MIC
rows = [
    ("Cl.Cl.O=C1c2cccc3c(Br)ccc(c23)C(=O)N1N(Cc1cn(Cc2ccc(F)cc2F)nn1)Cc1cn(Cc2ccc(F)cc2F)nn1", "Candida albicans", "512 µg/mL"),
    ("CCCCn1cc(CN(Cc2cn(CCCC)nn2)N2C(=O)c3cccc4c(Br)ccc(c34)C2=O)nn1.Cl.Cl", "Candida albicans", "> 512 µg/mL"),
    ("O=C1c2cccc3c(Br)ccc(c23)C(=O)N1N(Cc1cn(Cc2ccccc2F)nn1)Cc1cn(Cc2ccccc2F)nn1", "Candida albicans", "> 512 µg/mL"),
    ("O=C1c2cccc3c(Br)ccc(c23)C(=O)N1N(Cc1cn(Cc2ccc(Cl)cc2Cl)nn1)Cc1cn(Cc2ccc(Cl)cc2Cl)nn1", "Candida albicans", "> 512 µg/mL"),
    ("CCCCCCCCn1cc(CN(Cc2cn(CCCCCCCC)nn2)N2C(=O)c3cccc4c(Br)ccc(c34)C2=O)nn1.Cl.Cl", "Candida albicans", "> 512 µg/mL"),
    ("OC(Cn1cncn1)(Cn1cncn1)c1ccc(F)cc1F [FLUCONAZOLE]", "Candida albicans", "2 µg/mL"),
    ("Cl.Cl.Cl.Cl.Cl.Cl.O=C1c2cccc3c(Br)ccc(c23)C(=O)N1N(Cc1cn(Cc2ccc(Cl)cc2Cl)nn1)Cc1cn(Cc2ccc(Cl)cc2Cl)nn1", "Candida albicans", "> 512 µg/mL"),
    ("O=C1c2cccc3c(Br)ccc(c23)C(=O)N1N(Cc1cn(Cc2ccc(F)cc2F)nn1)Cc1cn(Cc2ccc(F)cc2F)nn1", "Candida albicans", "> 512 µg/mL"),
]
